Each item that follows carries a reported Drug uptake.
# Tested on: Blood
# Test protocol: Drug uptake in […] blood at 8 MBq/200 mL, iv after 30 mins
# Type: ADME, organism-based
# Reported conditions: in vivo, 0.5 h
The reply should be a number in %, with the unit left off.

Sample records with Drug uptake:
[11CH3]Oc1cc(C(=O)c2cccs2)cc(O)c1-c1cc(Cl)cc(Cl)c1 : 0.36
COc1cc(C(O)c2cccs2)cc(O[11CH3])c1-c1cc(Cl)cc(Cl)c1 (centres undefined) : 2.38
COc1cc(C(=O)c2cccs2)cc(O[11CH3])c1-c1cc(Cl)cc(Cl)c1 : 3.42

Query molecule follows.
Asked: Entry [11CH3]Oc1cc(C(O)c2cccs2)cc(O)c1-c1cc(Cl)cc(Cl)c1 (centres undefined) has what Drug uptake?
Given back: 0.35

###

# System: Brain
# Test protocol: Drug uptake in […] brain at 8 MBq/200 mL, iv after 1 min
# Type: ADME, organism-based
# Reported conditions: in vivo
Each item that follows carries a reported Drug uptake.
The reply should be a number in %, with the unit left off.

Sample records with Drug uptake:
[11CH3]Oc1cc(C(O)c2cccs2)cc(O)c1-c1cc(Cl)cc(Cl)c1 (centres undefined) : 1.94
COc1cc(C(O)c2cccs2)cc(O[11CH3])c1-c1cc(Cl)cc(Cl)c1 (centres undefined) : 1.93
COc1cc(C(=O)c2cccs2)cc(O[11CH3])c1-c1cc(Cl)cc(Cl)c1 : 1.2

Query molecule follows.
Asked: Entry [11CH3]Oc1cc(C(=O)c2cccs2)cc(O)c1-c1cc(Cl)cc(Cl)c1 has what Drug uptake?
Given back: 1.54

###

Each item that follows carries a reported Drug uptake.
# Tested on: Brain
# Test protocol: Drug uptake in […] brain at 8 MBq/200 mL, iv after 15 mins
# Type: ADME, organism-based
# Reported conditions: in vivo, 0.25 h
The reply should be a number in %, with the unit left off.

Sample records with Drug uptake:
COc1cc(C(=O)c2cccs2)cc(O[11CH3])c1-c1cc(Cl)cc(Cl)c1 : 1.1
[11CH3]Oc1cc(C(O)c2cccs2)cc(O)c1-c1cc(Cl)cc(Cl)c1 (centres undefined) : 1.77
COc1cc(C(O)c2cccs2)cc(O[11CH3])c1-c1cc(Cl)cc(Cl)c1 (centres undefined) : 1.5

Query molecule follows.
Asked: Entry [11CH3]Oc1cc(C(=O)c2cccs2)cc(O)c1-c1cc(Cl)cc(Cl)c1 has what Drug uptake?
Given back: 1.01

###

# Test system: Blood
# Test protocol: Drug uptake in […] blood at 8 MBq/200 mL, iv after 60 mins
# Assay type: ADME, organism-based
# Reported conditions: in vivo, 1 h
Each item that follows carries a reported Drug uptake.

Sample records with Drug uptake:
[11CH3]Oc1cc(C(O)c2cccs2)cc(O)c1-c1cc(Cl)cc(Cl)c1 (centres undefined) : 0.37%
COc1cc(C(O)c2cccs2)cc(O[11CH3])c1-c1cc(Cl)cc(Cl)c1 (centres undefined) : 2.27%
COc1cc(C(=O)c2cccs2)cc(O[11CH3])c1-c1cc(Cl)cc(Cl)c1 : 3.38%

Query molecule follows.
Asked: Entry [11CH3]Oc1cc(C(=O)c2cccs2)cc(O)c1-c1cc(Cl)cc(Cl)c1 has what Drug uptake?
Given back: 0.21%

###

# Tested on: Brain
# Test protocol: Drug uptake in […] brain at 8 MBq/200 mL, iv after 30 mins
# Format: ADME, organism-based
# Reported conditions: in vivo, 0.5 h
Each item that follows carries a reported Drug uptake.
The reply should be a number in %, with the unit left off.

[11CH3]Oc1cc(C(O)c2cccs2)cc(O)c1-c1cc(Cl)cc(Cl)c1 (centres undefined) : 0.96
COc1cc(C(=O)c2cccs2)cc(O[11CH3])c1-c1cc(Cl)cc(Cl)c1 : 0.85
COc1cc(C(O)c2cccs2)cc(O[11CH3])c1-c1cc(Cl)cc(Cl)c1 (centres undefined) : 1.09

Query molecule follows.
Asked: Find the measured Drug uptake: item [11CH3]Oc1cc(C(=O)c2cccs2)cc(O)c1-c1cc(Cl)cc(Cl)c1 , target or system Brain.
Given back: 0.56
